Please respond with reported pIC50 for every item in the list.
Tested on: PC-3
MEASUREMENT_DESCRIPTION: Antiproliferative effect of compound on PC3 cell line
Format: functional, cell-based
STUDY_CONDITIONS: Homo sapiens
Give bare numbers, as −log10 of the molar value.

Hello, I would appreciate it if you could give pIC50 for each entry below.
1. O=C(O)c1ccc2cc(-c3ccc(O)c(C45CC6CC(CC(C6)C4)C5)c3)ccc2c1 [O-DEMETHYLATED ADAPALENE]
2. O=C(O)/C=C/c1ccc(-c2ccc(O)c(C34CC5CC(CC(C5)C3)C4)c2)cc1 [ADAROTENE]

A)
[6.37, 6.68]

###

Please respond with reported pIC50 for every item in the list.
Test system: DU-145
MEASUREMENT_DESCRIPTION: Antiproliferative effect of compound on DU145 cell line expressing mutant p53
Type: functional, cell-based
STUDY_CONDITIONS: Homo sapiens
One number for each entry, as −log10 of the molar value.

- COMPOUND: "O=C(O)/C=C/c1ccc(-c2ccc(O)c(C34CC5CC(CC(C5)C3)C4)c2)cc1 [ADAROTENE]"
  pIC50: 7.00

Now look at this entry.
Q) Indicate the recorded pIC50 value for this compound: O=C(O)c1ccc2cc(-c3ccc(O)c(C45CC6CC(CC(C6)C4)C5)c3)ccc2c1 [O-DEMETHYLATED ADAPALENE]
A) 6.55

###

Tested on: LNCaP
MEASUREMENT_DESCRIPTION: Antiproliferative effect of compound on LNcaP cell line expressing wild-type p53
Format: functional, cell-based
STUDY_CONDITIONS: Homo sapiens
MEASURED_ENDPOINT: IC50 (µM)
Answers are plain numbers, in µM.

- SUBSTANCE_SMILES: "O=C(O)c1ccc2cc(-c3ccc(O)c(C45CC6CC(CC(C6)C4)C5)c3)ccc2c1"
  IC50 [µM]: 0.32

Now look at this entry.
Q) Indicate the recorded IC50 value for this molecule: O=C(O)/C=C/c1ccc(-c2ccc(O)c(C34CC5CC(CC(C5)C3)C4)c2)cc1
A) 0.12

###

System: IGROV-1
MEASUREMENT_DESCRIPTION: Antiproliferative effect of compound on IGROV-1 cell line expressing wild-type p53
Assay type: functional, cell-based
STUDY_CONDITIONS: Homo sapiens
Please respond with reported pIC50 for every item in the list.
Answers are plain numbers, as −log10 of the molar value.

- SUBSTANCE_SMILES: "O=C(O)c1ccc2cc(-c3ccc(O)c(C45CC6CC(CC(C6)C4)C5)c3)ccc2c1"
  pIC50: 6.46

Now look at this entry.
Q) Report measured pIC50 on IGROV-1; entry: O=C(O)/C=C/c1ccc(-c2ccc(O)c(C34CC5CC(CC(C5)C3)C4)c2)cc1
A) 6.64
